Data provenance is a melting point compilation (Tetko et al.; mined from patent text by program, amines drawn as free bases though some values may be those of a salt).

quantity.name: melting point

Noted for CCc1nc2c(N)nc3ccc(OCc4ccccc4)cc3c2n1CCCCNC(=O)N1CCOCC1 : its melting point reads 190 to 191 °C

Notebook: CCOc1c(C)c(N2CCN(c3ccc(OC)cc3)CC2)c(C)c2c1OC(C)C2 (stereo not given) , melting point read as 106 to 108 °C

In plain terms, Cc1nc(C)c(Cl)c(NCc2ccc(Oc3ccc4ncc([N+](=O)[O-])n4n3)c(O)c2)n1 has a documented melting point of > 114 °C

Per the record, CC(=O)Nc1cccc2c1CN(c1ccc3ccn(C)c3c1)C2=O has melting point of 180 to 184 °C

// sample N#CCc1ccc(C2CCCCC2)cc1 , its melting point was 48 to 49 °C

###

Field: melting point. Provide a value for each of the compounds that follow.

Reported melting point for COC(=O)c1cnc(N)c([N+](=O)[O-])c1 was 195 to 196 °C

Reported melting point of Cc1c(Br)cccc1NS(=O)(=O)c1cc(S(=O)(=O)Nc2cccc(Br)c2C)c2cc(O)ccc2c1 : 129 to 131 °C

For CCCCN1CC=C(c2cccc3[nH]ccc23)CC1 the compound record lists melting point as 91 °C

Documented melting point of CCOP(=O)(OCC)c1sc2ccccc2c1P(=O)(OCC)OCC : 67 °C

Looking up CN(C)CC(=O)NN=Cc1c(-c2ccccc2)nn2ccccc12 , I found its melting point recorded as 172 to 173 °C

GET /value?item= COc1ccc(C(=O)CC(SC(C)=O)C(=O)O)cc1 (stereo not given) &field=melting point returns 122 to 124 °C

Lab book: melting point of CC(=O)CCSc1cc(C(C)(C)C)c(O)c(C(C)(C)C)c1 noted as 79 to 81 °C

The compound identified as Cc1ccc(OC(F)C(F)(F)F)c([N+](=O)[O-])c1[N+](=O)[O-] (stereo not given) registered its melting point at 35 °C

Note to self: melting point recorded for O=C1CN(c2cccc(Oc3ccccc3)c2)NC(=O)N1 was 172 to 173 °C

Measured melting point, CCC(CC)c1ccc(Cl)c2nc3n(c12)CCN3c1ccc(Cl)cc1Br : 169 to 171 °C

###

quantity.name: melting point

Consider CC(C)NCC(O)COc1nccnc1C1CNCCO1 (stereo not drawn) . Its measured melting point is 74 to 76 °C

Per the records, this compound ( O=Cc1nn(-c2ccccc2)c2c1CCC2 ) has melting point equal to 108 to 109 °C

Sample N#Cc1ccc(Cn2cncn2)cc1-c1ccc(Cl)c(OS(N)(=O)=O)c1 ; melting point observed: 148 to 150 °C

The compound CCOC(=O)C(=Cc1cccn2c(Br)c(C)nc12)N=[N+]=[N-] showed melting point equal to 108 to 110 °C

GET /value?item= C=C(C)Cn1nc(C(=O)c2cccc(O)c2)c2ccccc21 &field=melting point returns 75 to 78 °C

The recorded melting point for COc1ccc(F)c([C@@H]2C[C@H]2CNC(=O)C(C)C)c1 (relative stereo) is 56 to 57 °C

// recorded melting point for CCOC(=O)C(CC(=O)c1cccc(Cl)c1)(NC(C)=O)C(=O)OCC : 84 to 86 °C

Input O=C1CCCC2=C1C(c1ccc(Cl)c(C(F)(F)F)c1)C1=C(CCS1)N2 (single isomer, unassigned; (+)) . Output melting point: > 250 °C

So for CNC(=O)CNC(=O)c1cccc(-c2cccc3oc(Cc4cccc(C(F)(F)F)c4)cc23)c1 , the logged melting point turned out to be 135 to 139 °C

Measured melting point of CNc1nc(NCc2ccc(NC(=O)c3ccc(Cl)nc3)cc2)c2c(C)cccc2n1 : 233 to 236 °C

Sure, the documented melting point for CCCn1nc(C(C)C)c(C(=O)OCc2ccccc2C(=O)c2ccccc2)c1Cc1ccc(-c2ccccc2S(N)(=O)=O)c(F)c1 is 49 to 51 °C

Entry CC(C)n1c(C=O)c(-c2ccc(F)cc2)c(-c2ccc(F)cc2)c1C(=O)NCc1ccc(S(C)(=O)=O)cc1 ; melting point = 203 to 204 °C

Reported melting point for COc1cc(Oc2csc(C(F)(F)F)c2)nc(-c2ccc(C(F)(F)F)cc2)n1 was 91 to 93 °C

Value of measured melting point for the entry c1nc(SCC2CCCC2)n[nH]1 : 48 to 55 °C

The reported value for CC[C@H](CS[C@@H](CCc1ccccc1C(C)(C)O)c1cccc(C=Cc2ccc3ccc(Cl)cc3n2)c1)C(=O)O in terms of melting point is 115 to 117 °C

melting point recorded for this compound, CCOC(=NS(=O)(=O)c1ccccc1OC(F)F)OCC , is 80 to 81 °C

Entry COc1ccc(COc2cccnc2NC(=N)Nc2ccc(Cl)cc2)c(F)c1 ; melting point = 158 to 161 °C

For NC(=O)N(C(=O)c1c(F)cccc1Cl)c1ccc(SC(F)(F)F)cc1 the compound record lists melting point as 202 °C

Form field melting point, entry CC(=O)OC(n1cc(C#N)c(-c2cccc(Cl)c2Cl)c1)C(Cl)(Cl)Cl (stereo not drawn) : 111 to 113 °C

Per the record, O=C(Nc1cc(-c2c(-c3ccc(F)cc3)nc3cccnn23)ccn1)c1ccc(Cl)nc1 has melting point of 247 to 248 °C

Notebook: CC(C)(C)C(NC(=O)c1ccc(Cl)cc1)NC(=NC#N)Nc1cc(F)cc(F)c1 (stereo not drawn) , melting point read as 196 to 198 °C

Note to self: melting point recorded for S=C(N1CCCCC1)C1(c2ccccn2)CCCS1 (stereo not drawn) was 90 °C

Lookup result for CCCCCCCCCCCCCCCCCCOC(=O)C1CCC2OC2C1 (stereo not drawn) ; measured melting point: 32 to 34 °C

Documented melting point of O=C(O)c1cc(COc2ccccc2)cc(Cn2cc(C3c4ccccc4C=Cc4ccccc43)c(=S)[nH]c2=O)c1 : 160 to 165 °C

The reported melting point of the compound CC(=CC(=O)O)c1cccc(-c2cc3c(cc2C)C(C)(C)CCC3(C)C)c1 was 89 to 90 °C

response.value for COC1=C(c2ccc(C)cc2C)C(=O)CCC1 (field: melting point) = 122 to 123 °C

Field melting point (entry CC(=O)OC/C=C(\C)CCc1c(C)c(O)c(C)c(C)c1O ) reads 94.5 to 96 °C

response.value for CC(=O)[NH+]([O-])C[C@@H]1CN(c2cc(F)c(N3CCN(C(=O)CO)CC3)c(F)c2)C(=O)O1 (stereo partly drawn) (field: melting point) = 100 to 105 °C

Lab book: melting point of CCOC=Nc1[nH]nc(Nc2cccc(OC)c2)c1C#N noted as 181 to 183 °C

According to the records, this compound CCCC(=O)Nc1cc([N+](=O)[O-])c(Sc2cccc3cnccc23)cc1N displays melting point of 191 to 192 °C

# compound Cc1[nH]c(C(=O)NCCC(=O)O)c(C)c1-c1nc2ccc(C(=O)c3ccccc3)cc2[nH]1 ; its melting point = 256 to 258 °C

Recorded result, CCC(CC)n1nc2c(C(F)(F)F)cccc2c1-c1ccc(OC)cc1OC , melting point: 138 to 139 °C

melting point reading for CC(Br)c1ccc(-n2nccn2)cn1 (stereo not drawn) : 72 to 73 °C

Field melting point (entry Cc1cc(C)c2cc3c(cc2n1)C(NCCc1ccccc1)C(O)C(C)(C)O3 (stereo not drawn) ) reads 144 to 147 °C

The measured melting point associated with CCOC(=O)c1cccc(Cn2cnc3cnccc32)c1 reads 119 to 120 °C

Sure, the documented melting point for C=CCOC1=NC2OC(C(=O)c3ccc(Cl)cc3Cl)=C(NC(N)=O)C2C=C1 (stereo not drawn) is 222 °C

For record CN1CC(CCCN2CCN(c3ccccc3O)CC2)OC1=O (stereo not drawn) the listed melting point is 112 to 116 °C

melting point measured on Cc1nc2c(N)nc3cccnc3c2n1CC1(O)CCN(C(=O)OC(C)(C)C)CC1 = 233 to 235 °C

###

I'd be grateful if you could share measured melting point for these entries.

Documented melting point of CC1=C(C2C=CN(C(=O)OCC(Cl)(Cl)Cl)C=C2)SC(C)C(=O)N1 (centres undefined) : 140 to 142 °C

The reported value for CCCCCCCCCCCCNC(=O)c1cc(-c2cccc(C(F)(F)F)c2)c(OCC(=O)O)c(-c2cccc(C(F)(F)F)c2)c1 in terms of melting point is 154 to 158 °C

melting point reading for Cc1oc(-c2ccccc2)nc1COc1ccc(COc2ccc3ccccc3c2CC#N)cc1 : 178 to 179 °C

Entry under test: COc1cc(C(=O)Nc2ccc3c(c2)CN(C)CC3)cc(OC)c1OC . Its melting point was 158 °C

// sample O=C1N(Cc2ccc(Cl)s2)c2ccccc2C1(O)c1cc(OCc2ccccc2)ccc1O (centres undefined) , its melting point was 174 to 175 °C

Record O=C(c1ccncc1)c1cc2c(c(C(=O)O)c1)OC(c1ccccc1)(c1ccccc1)O2 . Reported melting point: 256 to 257 °C

The reported melting point of the compound S=S1N=C2SCSC2=N1 was 99 °C

Record CC1C(=O)N(c2ccc(Cl)cc2)C(=S)N1c1ccc(Cc2ccccc2)cc1 (centres undefined) , field melting point: 144 °C

Measured melting point of CCOC(=O)C1=C(C)NC(O)(C(Cl)(Cl)Cl)C(C(=O)OCC)C1c1cccc([N+](=O)[O-])c1 (centres undefined) : 125 to 126 °C
